test_target: human JAK1 (Homo sapiens, UniProt P23458)
Construct: catalytic domain, amino acids 866-1154; catalog number PV4774
Sequence (P23458 866-1154): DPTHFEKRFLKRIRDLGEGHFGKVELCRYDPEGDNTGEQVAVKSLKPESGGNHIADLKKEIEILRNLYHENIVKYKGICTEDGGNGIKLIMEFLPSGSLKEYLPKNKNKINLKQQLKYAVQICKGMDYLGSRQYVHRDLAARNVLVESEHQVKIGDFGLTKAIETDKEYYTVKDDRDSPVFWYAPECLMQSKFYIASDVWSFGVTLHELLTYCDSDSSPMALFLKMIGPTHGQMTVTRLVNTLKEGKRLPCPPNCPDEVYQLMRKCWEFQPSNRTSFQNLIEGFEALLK
procedure_text: JAK1 inhibition assay (polyGT substrate / Ulight-JAK1 peptide)
experimental_setup: recombinant human JAK1 catalytic domain; polyGT or Ulight-JAK1 peptide assay
pIC50: −log10 of the molar value.
test_readout: pIC50

CCc1cc(C2CCN(S(C)(=O)=O)CC2)ccc1N(C)c1cc2c(cn1)ncn2C ... 7.00 to 11.00
CCN(c1cccc(C(=O)c2ccccc2)c1)c1cc2c(cn1)ncn2C ... < 6.00
CCc1cc(C(C#N)N2CCC(F)(F)CC2)ccc1N(C)c1cc2c(cn1)ncn2C (stereo not shown) ... 7.00 to 11.00

Qu. Jot down pIC50 (human JAK1 (Homo sapiens, UniProt P23458)) of CCN(c1ccc2oc(C)nc2c1)c1cc2c(cn1)ncn2C .
Ans. 6.00 to 6.30

Qu. Give pIC50; test system human JAK1 (Homo sapiens, UniProt P23458); compound CCc1cc(C(=O)N2CCN(C)CC2)ccc1N(C)c1cc2c(cn1)ncn2C
Ans. 6.00 to 6.30
